Recorded Degradation rate (%) of ERα in MCF-7 cells, one value per entry.
target: ERα (Homo sapiens); experiment: Degradation of ERα in MCF-7 cells (immunoblotting, 4 h); assay type: cell-based; settings: 1nM compound
Sequence (P03372 whole entry): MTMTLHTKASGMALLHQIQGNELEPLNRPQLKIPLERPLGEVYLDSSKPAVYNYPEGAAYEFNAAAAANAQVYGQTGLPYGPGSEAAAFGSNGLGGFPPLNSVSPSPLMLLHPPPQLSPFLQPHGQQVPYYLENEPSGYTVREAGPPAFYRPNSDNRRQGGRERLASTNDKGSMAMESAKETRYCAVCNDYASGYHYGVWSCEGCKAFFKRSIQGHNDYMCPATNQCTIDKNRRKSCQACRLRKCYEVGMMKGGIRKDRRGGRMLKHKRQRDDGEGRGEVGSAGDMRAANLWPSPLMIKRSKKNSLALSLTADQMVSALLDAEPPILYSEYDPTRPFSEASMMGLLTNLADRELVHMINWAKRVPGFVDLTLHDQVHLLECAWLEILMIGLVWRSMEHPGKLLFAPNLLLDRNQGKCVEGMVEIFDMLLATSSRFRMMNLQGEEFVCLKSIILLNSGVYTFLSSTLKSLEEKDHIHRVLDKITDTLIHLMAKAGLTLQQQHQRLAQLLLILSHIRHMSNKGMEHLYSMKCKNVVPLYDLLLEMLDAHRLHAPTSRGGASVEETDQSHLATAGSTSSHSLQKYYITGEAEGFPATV
MEASUREMENT TYPE: Degradation rate (%) of ERα in MCF-7 cells

>  <COMPOUND>
O=C1CCC(N2Cc3c(ccc4c3OCC43CCN(C4CCN(C(=O)C5CCC6(CC5)CN(c5ccc([C@@H]7c8ccc(O)cc8CC[C@@H]7c7ccccc7)cc5)C6)CC4)CC3)C2=O)C(=O)N1 (some centres unmarked)

>  <NUMERIC RESULT>
63

$$$$
>  <COMPOUND>
C[C@@H]1Cc2cc(O)ccc2C(c2c(F)cc(N3CCN(C[C@H]4CC[C@H](C(=O)N5CCC6(CC5)COc5c6ccc6c5CN(C5CCC(=O)NC5=O)C6=O)CC4)CC3)cc2F)N1CC(F)F (some centres unmarked)

>  <NUMERIC RESULT>
57

$$$$
>  <COMPOUND>
O=C1CCC(N2Cc3c(ccc4c3OCC43CCN(C(=O)CN4CCC(OC5CCN(c6ccc([C@@H]7c8ccc(O)cc8CC[C@@H]7c7ccccc7)cc6)CC5)CC4)CC3)C2=O)C(=O)N1 (some centres unmarked)

>  <NUMERIC RESULT>
57

$$$$
>  <COMPOUND>
O=C1CCC(N2Cc3cc4c(cc3C2=O)OC2(CC4)CN(C(=O)[C@H]3CC[C@H](CN4CCN(c5ccc([C@@H]6c7ccc(O)cc7CC[C@@H]6c6ccccc6)cc5)CC4)CC3)C2)C(=O)N1 (some centres unmarked)

>  <NUMERIC RESULT>
29

$$$$
>  <COMPOUND>
O=C1CC[C@H](N2Cc3cc(N4CCN(CC5CCN(c6ccc([C@@H]7c8ccc(O)cc8CC[C@@H]7c7ccccc7)cc6)CC5)CC4)ccc3C2=O)C(=O)N1 [ARV-471, reference compound]

>  <NUMERIC RESULT>
38

$$$$
>  <COMPOUND>
O=C1CCC(N2Cc3c(ccc4c3OCC43CCN(C4CC5CC4CN5C4CC5(CCN(c6ccc([C@@H]7c8ccc(O)cc8CC[C@@H]7c7ccccc7)cc6)CC5)C4)CC3)C2=O)C(=O)N1 (some centres unmarked)

>  <NUMERIC RESULT>
38

$$$$
>  <COMPOUND>
O=C1CCC(N2Cc3c(ccc4c3OCC43CCN(CC(=O)N4CC5(C4)CN(c4ccc([C@@H]6c7ccc(O)cc7CC[C@@H]6c6ccccc6)cc4)C5)CC3)C2=O)C(=O)N1 (some centres unmarked)

>  <NUMERIC RESULT>
38

$$$$
>  <COMPOUND>
CN(C(=O)CN1CCC2(CC1)COc1c2ccc2c1CN(C1CCC(=O)NC1=O)C2=O)C1CCC2(CC1)CCN(c1ccc([C@@H]3c4ccc(O)cc4CC[C@@H]3c3ccccc3)cc1)CC2 (some centres unmarked)

>  <NUMERIC RESULT>
32

$$$$
>  <COMPOUND>
CN(C1CCN(c2ccc([C@@H]3c4ccc(O)cc4CC[C@@H]3c3ccccc3)cc2)CC1)[C@H]1CC[C@H](C(=O)N2CCC3(CC2)COc2c3ccc3c2CN(C2CCC(=O)NC2=O)C3=O)CC1 (some centres unmarked)

>  <NUMERIC RESULT>
-7

$$$$
>  <COMPOUND>
O=C1CCC(N2Cc3c(ccc4c3OCC43CCN(C4CCN(C(=O)C5CCN(c6ccc([C@@H]7c8ccc(O)cc8CC[C@@H]7c7ccccc7)cc6)CC5)[C@@H](C(=O)N5CCC(F)(F)C5)C4)CC3)C2=O)C(=O)N1 (some centres unmarked)

>  <NUMERIC RESULT>
42

$$$$
>  <COMPOUND>
CCN(CC1CCN(c2ccc([C@@H]3c4ccc(O)cc4CC[C@@H]3c3ccccc3)cc2)CC1)[C@H]1CC[C@@H](C(=O)N2CCC3(CC2)COc2c3ccc3c2CN(C2CCC(=O)NC2=O)C3=O)CC1 (some centres unmarked)

>  <NUMERIC RESULT>
-2

$$$$
>  <COMPOUND>
O=C1CCC(N2Cc3c(ccc4c3OCC43CCN(C4CCN(CC5CCN(c6ccc([C@@H]7c8ccc(O)cc8CC[C@@H]7c7ccccc7)cc6)CC5)CC4)CC3)C2=O)C(=O)N1 (some centres unmarked)

>  <NUMERIC RESULT>
25

$$$$
>  <COMPOUND>
O=C1CCC(N2C(=O)c3ccc4c(c3C2=O)OC2(CC4)CCN(C3CCC4(CC3)CN(c3ccc([C@@H]5c6ccc(O)cc6CC[C@@H]5c5ccccc5)cc3)C4)CC2)C(=O)N1 (some centres unmarked)

>  <NUMERIC RESULT>
27

$$$$
>  <COMPOUND>
O=C1CCC(N2C(=O)c3cc4c(cc3C2=O)OC2(CCN(C(=O)CN3CCC5(CC3)CCN(c3ccc([C@@H]6c7ccc(O)cc7CC[C@@H]6c6ccccc6)cc3)CC5)CC2)C4)C(=O)N1 (some centres unmarked)

>  <NUMERIC RESULT>
13

$$$$
>  <COMPOUND>
C[C@@H]1Cc2c([nH]c3ccccc23)[C@@H](c2c(F)cc(N3CCC4(CCN(C(=O)CN5CCC6(CC5)COc5c6ccc6c5CN(C5CCC(=O)NC5=O)C6=O)CC4)CC3)cc2F)N1CC(F)F (some centres unmarked)

>  <NUMERIC RESULT>
-7

$$$$
>  <COMPOUND>
O=C1CCC(N2Cc3cc4c(cc3C2=O)CCC2(CN(C3CCN(C5CCN(c6ccc([C@@H]7c8ccc(O)cc8CC[C@@H]7c7ccccc7)cc6)CC5)CC3)C2)O4)C(=O)N1 (some centres unmarked)

>  <NUMERIC RESULT>
10

$$$$
>  <COMPOUND>
O=C1CCC(N2Cc3c(ccc4c3OCC43CCN(C(=O)C4CCC(N5CCC(C#Cc6ccc([C@@H]7c8ccc(O)cc8CC[C@@H]7c7ccccc7)cc6)CC5)CC4)CC3)C2=O)C(=O)N1 (some centres unmarked)

>  <NUMERIC RESULT>
52

$$$$
>  <COMPOUND>
O=C1CCC(N2Cc3c(ccc4c3OCC43CCN(C4CCC(Oc5ccc([C@@H]6c7ccc(O)cc7CC[C@@H]6c6ccccc6)cc5)CC4)CC3)C2=O)C(=O)N1 (some centres unmarked)

>  <NUMERIC RESULT>
4

$$$$
>  <COMPOUND>
O=C1CCC(N2C(=O)c3ccc4c(c3C2=O)OCC42CCN(C(=O)CN3CCC4(CCN(c5ccc([C@@H]6c7ccc(O)cc7CC[C@@H]6c6ccccc6)cc5)CC4)C3)CC2)C(=O)N1 (some centres unmarked)

>  <NUMERIC RESULT>
31

$$$$
>  <COMPOUND>
O=C1CCC(N2Cc3c(ccc4c3OC3(CC4)CCN(C4CCC5(CC4)CN(c4ccc([C@@H]6c7ccc(O)cc7CC[C@@H]6c6ccccc6)cc4)C5)CC3)C2=O)C(=O)N1 (some centres unmarked)

>  <NUMERIC RESULT>
3

$$$$

Each recorded value in this set is attributed to patent EP4656642A1.
